test system: BCR-ABL1 transformed Ba/F3 cells; assay: Cell proliferation of BCR-ABL1 transformed Ba/F3 cells (MTS); format: cell-based, murine; conditions: Mus musculus, BaF3; single agent, 72 h (FIG. 6A); read-out: IC50, dose response titration
endpoint name: IC50 (µM)
Give bare numbers, in µM.

Param readout = IC50; param system = BCR-ABL1 transformed Ba/F3 cells; param query = Cc1ncsc1-c1ccc(CNC(=O)[C@@H]2C[C@@H](O)CN2C(=O)[C@@H](NC(=O)COCCOc2ccc(-c3cc(Nc4ccc(OC(F)(F)F)cc4)ncn3)cc2)C(C)(C)C)cc1 [Compound 10] ; response: value
1.11
